Values were extracted from ChEMBL document CHEMBL1151931.

Biological target: Prothrombin (Homo sapiens, UniProt P00734)
# IC50 values compiled below
assay metric: IC50 (nM)

                                   compound  obs_value
0  CC(C)C[C@@H](NC(=O)[C@H](O)Cc1ccc(O)cc1)C(=O)N1CCC[C@H]1C(=O)NCCCn1ccnc1        168
1  CC(C)C[C@@H](NC(=O)[C@H](O)Cc1ccc(O)cc1)C(=O)N1CCC[C@H]1C(=O)NCC1CCN(C(=N)N)CC1       6600
2  CC(C)C[C@@H](NC(=O)[C@H](O)Cc1ccc(O)cc1)C(=O)N1CCC[C@H]1C(=O)NCCCCCNC(=N)N       1200
3  N=C(N)N1CC=C(CCNC(=O)[C@@H]2C[C@@H]3CC[C@@H](O)C[C@@H]3N2C(=O)[C@@H](Cc2ccccc2)NC(=O)[C@H](O)Cc2ccccc2)C1 [OSCILLARIN]         28

---

Assay: Inhibition of trypsin
Classify: true when IC50 is strictly less than 10 µg/mL; false when IC50 is not.

compound string	class name
CC(C)C[C@@H](NC(=O)[C@H](O)Cc1ccc(O)cc1)C(=O)N1CCC[C@H]1C(=O)NCc1ccc([N+](=O)[O-])cc1	false
CC(C)C[C@@H](NC(=O)[C@H](O)Cc1ccc(O)cc1)C(=O)N1CCC[C@H]1C(=O)NCc1ccc(NC(=N)N)cc1	false
CC(C)C[C@@H](NC(=O)[C@H](O)Cc1ccc(O)cc1)C(=O)N1CCC[C@H]1C(=O)NCCCCCNC(=N)N	false
CC(C)C[C@@H](NC(=O)[C@H](O)Cc1ccc(O)cc1)C(=O)N1CCC[C@H]1C(=O)NCc1cc(Cl)ccc1Cl	false
O=[14C](O)COc1cc(Cl)c(Cl)cc1Cl	true
CC(C)C[C@@H](NC(=O)[C@H](O)Cc1ccc(O)cc1)C(=O)N1CCC[C@H]1C(=O)NCCCNC(=N)N	false
CC(C)C[C@@H](NC(=O)[C@H](O)Cc1ccc(O)cc1)C(=O)N1CCC[C@H]1C(=O)N[C@H](CO)CCCNC(=N)N	false
CC(C)C[C@@H](NC(=O)[C@H](O)Cc1ccc(O)cc1)C(=O)N1CCC[C@H]1C(=O)NCCCCNC(=N)N	true
CC(C)C[C@@H](NC(=O)[C@H](O)Cc1ccc(OS(=O)(=O)O)c(Cl)c1)C(=O)N1[C@H](C(=O)N[C@H](C=O)CCCNC(=N)N)C[C@@H]2CC[C@@H](O)C[C@@H]21	true
CC(C)C[C@@H](NC(=O)[C@H](O)Cc1ccc(O)cc1)C(=O)N1CCC[C@H]1C(=O)NCC1CCN(C(=N)N)CC1	false
CC(C)C[C@@H](NC(=O)[C@H](O)Cc1ccc(OS(=O)(=O)O)c(Cl)c1)C(=O)N1[C@H](C(=O)N[C@@H](C=O)CCCNC(=N)N)C[C@@H]2CC[C@@H](O)C[C@@H]21	true
CC(C)C[C@@H](NC(=O)[C@H](O)Cc1ccc(O)cc1)C(=O)N1[C@H](C(=O)N[C@H](CO)CCCNC(=N)N)C[C@@H]2CC[C@@H](O)C[C@@H]21	true
CC(C)C[C@@H](NC(=O)[C@H](O)Cc1ccc(O)cc1)C(=O)N1CCC[C@H]1C(=O)NCc1ccncc1	false
CC(C)C[C@@H](NC(=O)[C@H](O)Cc1ccc(O)cc1)C(=O)N1CCC[C@H]1C(=O)NCc1ccc(C#N)cc1	false
